Values from the supplement of paper PMC4862054

This section presents molecules with their documented normalised response values.
System: BT-549
Experiment summary: normalised response (% of control), CellTiter-Glo; higher = more viable cells (100 = DMSO, 0 = benzethonium chloride kill control)
Measurement conditions: incubation time: 72 h
Recorded endpoint: normalised response (%)

1) O=S(=O)(c1cccc2cnccc12)N1CCCNCC1 [Fasudil] (50 nM) :: 101
2) Cc1ccc(Nc2nccc(N(C)c3ccc4c(C)n(C)nc4c3)n2)cc1S(N)(=O)=O [Pazopanib] (1000 nM) :: 98.4
3) Cc1c(CN2CCN(C(=O)[C@H](C)O)CC2)sc2c(N3CCOCC3)nc(-c3cnc(N)nc3)nc12 [GDC-0980] (1 nM) :: 105
4) CC(C)N(CCCNC(=O)Nc1ccc(C(C)(C)C)cc1)C[C@H]1O[C@@H](n2cc(Br)c3c(N)ncnc32)[C@H](O)[C@@H]1O [SGC0946] (10 nM) :: 93.1
5) Cc1nc(Nc2ncc(C(=O)Nc3c(C)cccc3Cl)s2)cc(N2CCN(CCO)CC2)n1 [Dasatinib] (100 nM) :: 61.7
6) C[C@]12O[C@H](C[C@]1(O)CO)n1c3ccccc3c3c4c(c5c6ccccc6n2c5c31)CNC4=O [Lestaurtinib] (100 nM) :: 76.1
7) Nc1cccc2c1CN(C1CCC(=O)NC1=O)C2=O (configuration not stated) [Lenalidomide] (1 nM) :: 101

###

Test system: CAL-148
Experiment summary: normalised response (% of control), CellTiter-Glo; higher = more viable cells (100 = DMSO, 0 = benzethonium chloride kill control)
Measurement conditions: incubation time: 72 h
Recorded endpoint: normalised response (%)

1) CC(C)N(CCCNC(=O)Nc1ccc(C(C)(C)C)cc1)C[C@H]1O[C@@H](n2cc(Br)c3c(N)ncnc32)[C@H](O)[C@@H]1O [SGC0946] (1000 nM) :: 91.3
2) O=C(NC[C@H](O)CO)c1ccncc1Nc1ccc(I)cc1F [Pimasertib] (10 nM) :: 90.8
3) c1cc(CN2CCCNCCNCCCNCC2)ccc1CN1CCCNCCNCCCNCC1 [Plerixafor] (10 nM) :: 91.1

###

System: CAL-85-1
Experiment summary: normalised response (% of control), CellTox Green; higher = less cell death (100 = DMSO, 0 = benzethonium chloride kill control)
Measurement conditions: incubation time: 72 h
# normalised response values compiled below
Recorded endpoint: normalised response (%)

1. Cn1cc(CNCC2CCN(c3ncc(C(=O)NO)cn3)CC2)c2ccccc21 [Quisinostat] (100 nM) :: -5.42
2. CC/C(=C(\c1ccc(O)cc1)c1ccc(OCCN(C)C)cc1)c1ccccc1 [4-hydroxytamoxifen] (10000 nM) :: 34
3. COc1ccc(-c2cc3c(C)nc(N)nc3n([C@H]3CC[C@H](OCCO)CC3)c2=O)cn1 (1000 nM) :: 79.9

###

System: HCC1937
Experiment summary: normalised response (% of control), CellTiter-Glo; higher = more viable cells (100 = DMSO, 0 = benzethonium chloride kill control)
Measurement conditions: incubation time: 72 h
Recorded endpoint: normalised response

1) Nc1cccc2c1CN(C1CCC(=O)NC1=O)C2=O (stereo not drawn) [Lenalidomide] (10000 nM) :: 102%
2) CC/C(=C(\c1ccc(O)cc1)c1ccc(OCCN(C)C)cc1)c1ccccc1 [4-hydroxytamoxifen] (10000 nM) :: 25.4%
3) Cc1ccc(Nc2nccc(N(C)c3ccc4c(C)n(C)nc4c3)n2)cc1S(N)(=O)=O [Pazopanib] (10000 nM) :: 102%
4) CC[C@@]1(O)C(=O)OCc2c1cc1n(c2=O)Cc2cc3c(CN(C)C)c(O)ccc3nc2-1 [Topotecan] (10000 nM) :: 15.3%
5) Nc1ccccc1NC(=O)c1ccc(CNc2nccc(-c3cccnc3)n2)cc1 [Mocetinostat] (10000 nM) :: 49.8%
6) Cc1cccc(-c2nn3c(c2-c2ccnc4ccc(C(N)=O)cc24)CCC3)n1 [Galunisertib] (1000 nM) :: 101%
7) O=C(NC[C@H](O)CO)c1ccncc1Nc1ccc(I)cc1F [Pimasertib] (10000 nM) :: 68.1%
8) CO[C@@H](C(=O)N1Cc2[nH]nc(NC(=O)c3ccc(N4CCN(C)CC4)cc3)c2C1)c1ccccc1 [Danusertib] (10000 nM) :: 85.3%
